# System: Aspergillus niger
# assayComment: Antifungal activity against Aspergillus niger MTCC 282 at 10 ug/ml
# Type: functional
# conditionLabel: read-out: IZ
observationType: zone of inhibition at 10 µg/mL (mm)
Dear colleague, please return just the value in mm, with no unit written.

Input line: Query: zone of inhibition at 10 µg/mL; subject: COc1ccccc1NCC(=O)Oc1ccc2c(C)cc(=O)oc2c1
Output line: 10.4

Input line: Query: zone of inhibition at 10 µg/mL; subject: Cc1cc(=O)oc2cc(OC(=O)CNN3C=NNC3)ccc12
Output line: 11.2

Input line: Query: zone of inhibition at 10 µg/mL; subject: Cc1cc(=O)oc2cc(OC(=O)CNc3nccs3)ccc12
Output line: 13.4

Input line: Query: zone of inhibition at 10 µg/mL; subject: Cc1cc(=O)oc2cc(OC(=O)CNc3ccccc3[N+](=O)[O-])ccc12
Output line: 10.1

Input line: Query: zone of inhibition at 10 µg/mL; subject: Cc1ccccc1NCC(=O)Oc1ccc2c(C)cc(=O)oc2c1
Output line: 10.6
